Where do the numbers come from? From paper PMC9865825.

- Tested on: human foreskin fibroblasts (HFF)
- TEST_NAME: in vitro
- SETUP_CONDITIONS: 1 µM
READOUT_TYPE: HFF Viability (%)
API: value field is a number in %; no unit string.

Would you please look over these solved cases?
COMPOUND_STRUCTURE	TESTED_SYSTEM	HFF Viability (%)
CC(=O)OC[C@H]1O[C@@H](OCCCc2cn(Cc3ccccc3[S-])nn2)[C@H](OC(C)=O)[C@@H](OC(C)=O)[C@@H]1OC(C)=O.CC(C)(C)c1ccc(C[S-])cc1.CC(C)(C)c1ccc(C[S-])cc1.Cc1ccc(C(C)C)cc1.Cc1ccc(C(C)C)cc1.[Cl-].[Ru+2].[Ru+2]	human foreskin fibroblasts (HFF)	97
CC(=O)OC[C@H]1O[C@@H](n2cc(CCCC(=O)Oc3ccc([S-])cc3)nn2)[C@H](OC(C)=O)[C@@H](OC(C)=O)[C@@H]1OC(C)=O.CC(C)(C)c1ccc(C[S-])cc1.CC(C)(C)c1ccc(C[S-])cc1.Cc1ccc(C(C)C)cc1.Cc1ccc(C(C)C)cc1.[Cl-].[Ru+2].[Ru+2]	human foreskin fibroblasts (HFF)	97
CC(=O)OC[C@H]1O[C@@H](OCCCn2cc(CCCC(=O)Nc3ccc([S-])cc3)nn2)[C@H](OC(C)=O)[C@@H](OC(C)=O)[C@H]1OC(C)=O.CC(C)(C)c1ccc(C[S-])cc1.CC(C)(C)c1ccc(C[S-])cc1.Cc1ccc(C(C)C)cc1.Cc1ccc(C(C)C)cc1.[Cl-].[Ru+2].[Ru+2]	human foreskin fibroblasts (HFF)	101

Continue with the next compound.
Q) Field request: HFF Viability (%) | item: CC(=O)OC[C@H]1O[C@@H](OCCn2cc(CCCC(=O)Nc3ccc([S-])cc3)nn2)[C@H](OC(C)=O)[C@@H](OC(C)=O)[C@@H]1OC(C)=O.CC(C)(C)c1ccc(C[S-])cc1.CC(C)(C)c1ccc(C[S-])cc1.Cc1ccc(C(C)C)cc1.Cc1ccc(C(C)C)cc1.[Cl-].[Ru+2].[Ru+2]
A) 101

* * *

- TEST_NAME: in vitro
- SETUP_CONDITIONS: human
READOUT_TYPE: viability at 72 h, 1 µM (%)
API: value field is a number in %; no unit string.

Q) Field request: viability at 72 h, 1 µM | item: CC(=O)OC[C@H]1O[C@@H](N=[N+]=[N-])[C@H](OC(C)=O)[C@@H](OC(C)=O)[C@@H]1OC(C)=O [Compound 10]
A) 99

* * *

Property: HFF Viability (%); scope: individual compounds
- Tested on: human foreskin fibroblasts (HFF)
- TEST_NAME: in vitro
- SETUP_CONDITIONS: 0.1 µM

Would you please look over these solved cases?
COMPOUND	HFF Viability (%)
CC(=O)OC[C@H]1O[C@@H](OCCn2cc(CCCC(=O)Nc3ccc([S-])cc3)nn2)[C@H](OC(C)=O)[C@@H](OC(C)=O)[C@@H]1OC(C)=O.CC(C)(C)c1ccc(C[S-])cc1.CC(C)(C)c1ccc(C[S-])cc1.Cc1ccc(C(C)C)cc1.Cc1ccc(C(C)C)cc1.[Cl-].[Ru+2].[Ru+2] [Compound 21]	100 ± 1%
CC(=O)OC[C@H]1O[C@@H](OCCCc2cn(Cc3ccccc3[S-])nn2)[C@H](OC(C)=O)[C@@H](OC(C)=O)[C@@H]1OC(C)=O.CC(C)(C)c1ccc(C[S-])cc1.CC(C)(C)c1ccc(C[S-])cc1.Cc1ccc(C(C)C)cc1.Cc1ccc(C(C)C)cc1.[Cl-].[Ru+2].[Ru+2] [Compound 25]	98 ± 1%

Q) Field request: HFF Viability (%) | item: CC(=O)OC[C@H]1O[C@@H](n2cc(CCCC(=O)Nc3ccc([S-])cc3)nn2)[C@H](OC(C)=O)[C@@H](OC(C)=O)[C@@H]1OC(C)=O.CC(C)(C)c1ccc(C[S-])cc1.CC(C)(C)c1ccc(C[S-])cc1.Cc1ccc(C(C)C)cc1.Cc1ccc(C(C)C)cc1.[Cl-].[Ru+2].[Ru+2] [Compound 20]
A) 98 ± 1%

Q) Field request: HFF Viability (%) | item: CC(=O)OC[C@H]1O[C@@H](OCCn2cc(CCCC(=O)Nc3ccc([S-])cc3)nn2)[C@H](OC(C)=O)[C@@H](OC(C)=O)[C@H]1OC(C)=O.CC(C)(C)c1ccc(C[S-])cc1.CC(C)(C)c1ccc(C[S-])cc1.Cc1ccc(C(C)C)cc1.Cc1ccc(C(C)C)cc1.[Cl-].[Ru+2].[Ru+2] [Compound 22]
A) 100 ± 0%

Q) Field request: HFF Viability (%) | item: CC(=O)OC[C@H]1O[C@@H](n2cc(CCCC(=O)Oc3ccc([S-])cc3)nn2)[C@H](OC(C)=O)[C@@H](OC(C)=O)[C@@H]1OC(C)=O.CC(C)(C)c1ccc(C[S-])cc1.CC(C)(C)c1ccc(C[S-])cc1.Cc1ccc(C(C)C)cc1.Cc1ccc(C(C)C)cc1.[Cl-].[Ru+2].[Ru+2] [Compound 19]
A) 102 ± 1%

Q) Field request: HFF Viability (%) | item: CC(=O)OC[C@H]1O[C@@H](OCCCn2cc(CCCC(=O)Nc3ccc([S-])cc3)nn2)[C@H](OC(C)=O)[C@@H](OC(C)=O)[C@H]1OC(C)=O.CC(C)(C)c1ccc(C[S-])cc1.CC(C)(C)c1ccc(C[S-])cc1.Cc1ccc(C(C)C)cc1.Cc1ccc(C(C)C)cc1.[Cl-].[Ru+2].[Ru+2] [Compound 23]
A) 99 ± 1%

Q) Field request: HFF Viability (%) | item: CC(=O)OC[C@H]1O[C@@H](OCCCc2cn(Cc3ccccc3[S-])nn2)[C@H](OC(C)=O)[C@@H](OC(C)=O)[C@H]1OC(C)=O.CC(C)(C)c1ccc(C[S-])cc1.CC(C)(C)c1ccc(C[S-])cc1.Cc1ccc(C(C)C)cc1.Cc1ccc(C(C)C)cc1.[Cl-].[Ru+2].[Ru+2] [Compound 26]
A) 98 ± 1%

* * *

- TEST_NAME: in vitro
- SETUP_CONDITIONS: human
- Description: The viability of treated HFF was measured by the alamarBlue metabolic assay, and the proliferation of T. gondii β-gal was quantified by the β-galactosidase colorimetric test. In both cases, results are expressed as percentage (%) compared to control parasitic and host cells treated with 0.1% DMSO for which proliferation and viability were set to 100% (Table 1). All tissue culture media were purchased from Gibco-BRL, and biochemical agents from Sigma-Aldrich. […]
READOUT_TYPE: viability at 72 h, 0.1 µM (%)
API: value field is a number in %; no unit string.

Q) Field request: viability at 72 h, 0.1 µM | item: CC(=O)OC[C@H]1O[C@@H](N=[N+]=[N-])[C@H](OC(C)=O)[C@@H](OC(C)=O)[C@@H]1OC(C)=O [Compound 10]
A) 98
